target: A/M2-V27G (Influenza A virus, UniProt P0DOF5, V27G); type: cell-based, Influenza virus A/Udorn/72
OUTCOME MEASURE: % remaining activity after application of 100 μM compound (%)
# unit: % | format: bare number

Reference set, count: 3
Cl.NC1CCC2(CCCCC2)CC1 [Compound 8]	87.9
CNC1CCC2(CCCCC2)CC1.Cl [Compound 9]	89.6
C1CCC2(CC1)CCN(C1=NCCN1)CC2 [BL-1743, reference compound]	82.9

// next item, % remaining activity after application of 100 μM compound requested
Entry under review: NC12CC3CC(CC(C3)C1)C2 [Amantadine, reference compound] . Reported % remaining activity after application of 100 μM compound? 95

---

Each entry below carries its reported % remaining activity after application of 100 μM compound.
target: A/M2-V27A (Influenza A virus, UniProt P0DOF5, V27A); type: cell-based, Influenza virus A/Udorn/72
# unit: % | format: bare number

C1CCC2(CC1)CCN(C1=NCCN1)CC2 [BL-1743, reference compound]	97.4
Cl.NC1CCC2(CCCCC2)CC1	46.6
CNC1CCC2(CCCCC2)CC1.Cl	70.2

// next item, % remaining activity after application of 100 μM compound requested
Entry under review: NC12CC3CC(CC(C3)C1)C2 [Amantadine, reference compound] . Reported % remaining activity after application of 100 μM compound? 93.07

---

target: A/M2-A30T (Influenza A virus, UniProt P0DOF5, A30T); format: cell-based, Influenza virus A/Udorn/72
OUTCOME MEASURE: % remaining activity after application of 100 μM compound (%)
# unit: % | format: bare number

NC12CC3CC(CC(C3)C1)C2 [Amantadine, reference compound]	104.6
C1CCC2(CC1)CCN(C1=NCCN1)CC2 [BL-1743, reference compound]	102
CNC1CCC2(CCCCC2)CC1.Cl	101.

// next item, % remaining activity after application of 100 μM compound requested
Entry under review: Cl.NC1CCC2(CCCCC2)CC1 . Reported % remaining activity after application of 100 μM compound? 98.1

---

molecular target: A/M2-S31N (Influenza A virus, UniProt P0DOF5, S31N); format: cell-based, Influenza virus A/Udorn/72
Each entry below carries its reported % remaining activity after application of 100 μM compound.
The reply should consist of the numeric value with the unit placed after it.

C1CCC2(CC1)CCN(C1=NCCN1)CC2 [BL-1743, reference compound]	100 ± 0.67%
CNC1CCC2(CCCCC2)CC1.Cl	100 ± 4.1%
Cl.NC1CCC2(CCCCC2)CC1	99.1 ± 0.9%

Entry under review: NC12CC3CC(CC(C3)C1)C2 [Amantadine, reference compound] . Reported % remaining activity after application of 100 μM compound? 65.3 ± 2.7%

---

Each entry below carries its reported AM2 V27A % inhibition at 100 μM.
biological target: A/M2-V27A (Influenza A virus, UniProt P0DOF5, V27A); type: cell-based

Cl.NC1CSC2(CCCCC2)SC1 [Compound 33]	33 (0%) 34 (46.9%)

Entry under review: N=C(N)NC1CCC2(CCCCC2)CC1 [Compound 35] . Reported AM2 V27A % inhibition at 100 μM? 35 (14.6%)

Entry under review: NC1CSC2(CCCCCC2)SC1 [Compound 34] . Reported AM2 V27A % inhibition at 100 μM? 33 (0%) 34 (46.9%)

Entry under review: Cl.NNC1CCC2(CCCCC2)CC1 [Compound 31] . Reported AM2 V27A % inhibition at 100 μM? 31 (7.1%)

---

target: A/M2-G34E (Influenza A virus, UniProt P0DOF5, G34E); assay type: cell-based, Influenza virus A/Udorn/72
OUTCOME MEASURE: % remaining activity after application of 100 μM compound (%)
# unit: % | format: bare number

Reference set, count: 3
CNC1CCC2(CCCCC2)CC1.Cl	101.7
Cl.NC1CCC2(CCCCC2)CC1	96.
C1CCC2(CC1)CCN(C1=NCCN1)CC2 [BL-1743, reference compound]	89.8

Entry under review: NC12CC3CC(CC(C3)C1)C2 [Amantadine, reference compound] . Reported % remaining activity after application of 100 μM compound? 100.4

---

target: A/M2-L26F (Influenza A virus, UniProt P0DOF5, L26F); type: cell-based, Influenza virus A/Udorn/72
Each entry below carries its reported % remaining activity after application of 100 μM compound.
# unit: % | format: bare number

Reference set, count: 3
C1CCC2(CC1)CCN(C1=NCCN1)CC2 [BL-1743, reference compound]	89.2
Cl.NC1CCC2(CCCCC2)CC1	32.4
CNC1CCC2(CCCCC2)CC1.Cl	72.6

// next item, % remaining activity after application of 100 μM compound requested
Recall the recorded % remaining activity after application of 100 μM compound for NC12CC3CC(CC(C3)C1)C2 [Amantadine, reference compound] with A/M2-L26F (Influenza A virus, UniProt P0DOF5, L26F) and state it. 51.8
